Target: Retinoic acid receptor alpha (Homo sapiens) (UniProt P10276)
Sequence (P10276 whole entry, looked up): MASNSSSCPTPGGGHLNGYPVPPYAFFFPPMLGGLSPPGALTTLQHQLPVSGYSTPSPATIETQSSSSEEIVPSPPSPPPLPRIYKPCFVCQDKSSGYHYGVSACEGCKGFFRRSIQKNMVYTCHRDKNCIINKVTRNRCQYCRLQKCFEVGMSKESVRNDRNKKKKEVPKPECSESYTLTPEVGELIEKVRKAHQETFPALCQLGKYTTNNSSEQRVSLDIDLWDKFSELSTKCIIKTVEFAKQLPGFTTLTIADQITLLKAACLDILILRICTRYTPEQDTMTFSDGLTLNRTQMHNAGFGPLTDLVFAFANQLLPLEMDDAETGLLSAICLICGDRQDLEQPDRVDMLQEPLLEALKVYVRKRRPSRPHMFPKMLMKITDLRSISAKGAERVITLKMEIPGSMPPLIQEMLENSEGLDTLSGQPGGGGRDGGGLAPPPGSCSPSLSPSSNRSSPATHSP
Assay: NVS_NR_hRAR_Antagonist: NovaScreen (NVS) Nuclear Receptor Binding Assay for human Retinoic Acid Alpha Receptor Antagonism (RAR) (AID 2283358)
Description: NVS_NR_hRAR_Antagonist is a biochemical, single-readout assay that uses extracted gene-proteins in a cell-free assay. Measurements were taken 2 hours after chemical dosing in a 384-well plate.NVS_NR_hRAR_Antagonist is one of one assay component(s) measured or calculated from the NVS_NR_hRAR_Antagonist assay. […] This assay endpoint, NVS_NR_hRAR_Antagonist, was analyzed in the positive analysis fitting direction relative to DMSO as the negative control and baseline of activity. […]
Results filed as inconclusive are left out. The source made the active and inactive calls. How the source made its calls: active means hit-call score of the fitted dose curve at least 0.9, where 1 is the maximum; inconclusive means response in the unintended direction; inactive means score below 0.9.
Write down one outcome, taken from yes for active, no for inactive

Consider the following illustrative entries.
>>> print(df.to_string())
                                   compound  label_value
0  N#C[C@@H]1CC(F)(F)CN1C(=O)CNC1CC2CCC(C1)N2c1ncccn1 (some centres undefined)           no
1                 CCCCCCCCCCCCCC[N+](C)(C)C          yes
2    CC(C)CCCCCCOC(=O)CCCCC(=O)OCCCCCCC(C)C           no

Query: # lookup: test call for CC1=C(/C=C/C(C)=C/C=C/C(C)=C/C(=O)O)C(C)(C)CCC1
Result: no

* * *

biological target: mouse Cholecystokinin, CCK1 Receptor (CCKA), Cckar (gene 12425) (UniProt O08786); test: NVS_GPCR_mCCKAPeripheral: NovaScreen (NVS) G Protein-Coupled Receptor Assay for mouse Cholecystokinin, CCK1 Receptor (CCKA) (AID 2283285)
Sequence (O08786 whole entry, looked up): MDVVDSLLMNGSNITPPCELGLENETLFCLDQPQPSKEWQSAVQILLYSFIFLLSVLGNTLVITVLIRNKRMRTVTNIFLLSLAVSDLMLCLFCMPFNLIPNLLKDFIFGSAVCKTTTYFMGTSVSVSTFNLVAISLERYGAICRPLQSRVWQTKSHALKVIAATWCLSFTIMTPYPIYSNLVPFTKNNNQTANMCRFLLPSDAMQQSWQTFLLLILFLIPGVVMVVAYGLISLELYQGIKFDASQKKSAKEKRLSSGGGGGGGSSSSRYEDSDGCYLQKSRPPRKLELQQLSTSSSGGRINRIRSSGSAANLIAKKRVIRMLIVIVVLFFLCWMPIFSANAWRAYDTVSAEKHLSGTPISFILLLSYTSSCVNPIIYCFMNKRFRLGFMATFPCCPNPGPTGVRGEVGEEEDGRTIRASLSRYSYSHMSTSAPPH
Inconclusive results are not listed. Activity calls are given as the source filed them. The calls were made as follows: active = hit-call score of the fitted dose curve at least 0.9, where 1 is the maximum; inconclusive = response in the unintended direction; inactive = score below 0.9.
Write down one outcome, taken from True (active), False (inactive)

Query: # lookup: test call for CCC(=C(c1ccc(O)cc1)c1ccc(OCCN(C)C)cc1)c1ccccc1
Result: True

Query: # lookup: test call for CCCOc1sc(C(=O)N2CCC(c3cc(CN)ccc3F)CC2)c(C)c1Br
Result: True

Query: # lookup: test call for O=C(O)Cc1cc(I)c(Oc2cc(I)c(O)c(I)c2)c(I)c1
Result: False

Query: # lookup: test call for ClC1=C(Cl)C(Cl)(Cl)C(Cl)=C1Cl
Result: False

* * *

assay: BSK_CASM3C_Proliferation: Cell Proliferation Assessment in the BioMAP Diversity Plus: CASM3C Assay (AID 2283047); details: primary human coronary artery smooth muscle cells;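 further: sulforhodamine B total protein stain as relative cell number at 560 nm; sub-confluent cells exposed 48 h before staining; fitted both ways against DMSO so gain or loss of cell number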
The source made the active and inactive calls. Rule for the calls: active = hit-call score of the fitted dose curve at least 0.9, where 1 is the maximum; inactive = score below 0.9.
Write down one outcome, taken from 1.0 (active), 0.0 (inactive)

Consider the following illustrative entries.
>>> print(df.to_string())
                                   molecule  label_value
0                        Cc1cc(C)c(O)c(C)c1          0.0
1  CC[C@H](c1ccc(O)cc1)[C@@H](CC)c1ccc(O)cc1          1.0
2  CC(C)(C)CC(C)(C)c1ccc(O)c(-n2nc3ccccc3n2)c1          1.0
3             ClC1=C(Cl)C(Cl)(Cl)C(Cl)=C1Cl          1.0
4                             CCCCCCCC(=O)O          0.0
5                        COC(=O)CCCCC(=O)OC          0.0

Query: # lookup: test call for c1ccc2cc3c(ccc4ccccc43)cc2c1
Result: 1.0

Query: # lookup: test call for CCc1ccc(CCOc2ccc(CC3SC(=O)NC3=O)cc2)nc1 (stereo unspecified)
Result: 0.0

Query: # lookup: test call for COCC(C)O (stereo unspecified)
Result: 0.0
